System: PFTK1;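 also: KINOMEscan kinase panel screen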
Construct: gene CDK14
CONDITION SUMMARY: concentration: 1 μM, replicates: in singlicate; n = 1
MEASUREMENT NAME: %Inh (%)
API: value field is a number in %; no unit string.

Give the measured %Inh of COc1cc2ncn(-c3cc(OCc4ccncc4)c(C(N)=O)s3)c2cc1OC .
16

Another compound: CCCC(=O)Nc1n[nH]c2ncc(-c3cccc4ccccc34)cc12
39

Another compound: Nc1nccc2scc(-c3ccc4c(c3)CCN4C(=O)Cc3ccccc3)c12
23

Another compound: O=C(NCc1cccs1)c1cc(C(=O)c2c(Cl)cccc2Cl)c[nH]1
55

Another compound: Cc1cccc(-c2nc(Nc3ccc4c(cnn4C)c3)c3ccccc3n2)n1
22
